Assignment: determine reported EC50 for the given molecules.
- SYSTEM UNDER TEST: GLP-1R (Homo sapiens, UniProt P43220)
- Sequence (P43220 24-463): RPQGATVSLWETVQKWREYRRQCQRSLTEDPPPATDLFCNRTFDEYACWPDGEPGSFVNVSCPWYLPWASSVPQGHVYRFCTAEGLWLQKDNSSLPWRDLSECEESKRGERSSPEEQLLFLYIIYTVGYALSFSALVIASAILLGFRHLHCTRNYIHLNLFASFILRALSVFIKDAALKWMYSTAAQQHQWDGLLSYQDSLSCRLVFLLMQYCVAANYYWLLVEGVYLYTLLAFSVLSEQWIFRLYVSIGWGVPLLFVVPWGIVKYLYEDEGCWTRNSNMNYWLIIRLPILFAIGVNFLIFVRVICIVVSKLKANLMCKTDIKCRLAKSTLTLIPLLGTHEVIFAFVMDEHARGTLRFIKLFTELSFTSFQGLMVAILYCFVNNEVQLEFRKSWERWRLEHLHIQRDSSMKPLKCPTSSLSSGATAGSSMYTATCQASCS
- METHOD NOTES: GLP-1R agonist cAMP stimulation assay (HTRF cAMP)
- TEST PARAMETERS: HEK293 cell line expressing GLP-1 target; HTRF cAMP agonist mode, 30 min at RT
- Procedure: cAMP Detection Kit, Cisbio (Cat #62AM4PEJ) The cell line was constructed by WuXi. 2. Methods • a) The compound source plate preparation: • The reference 7-37 was diluted from 500 nM, 4-fold, 10 points in DMSO using Bravo. […]
Give the number; nM is assumed, so skip it.

Give measured EC50 for Cc1n[nH]c2c(C(F)(F)F)cc(NC(=O)c3ccc4c(c3)nc(CN3CC=C(c5cccc(OCc6ccc(Cl)cc6F)n5)CC3)n4C[C@@H]3CCO3)cc12 (GLP-1R (Homo sapiens, UniProt P43220)).
0.68

Please indicate recorded EC50 of CC(C)c1n[nH]c2ccc(C(=O)Nc3ccc4c(c3)nc(CN3CCC(c5cccc6c5OC(C)(c5ccc(C#N)cc5F)O6)CC3)n4CC3CCO3)cc12 (stereo not drawn) measured with GLP-1R (Homo sapiens, UniProt P43220).
0.81

Tell me its EC50 on GLP-1R (Homo sapiens, UniProt P43220): Cc1n[nH]c2c(C)cc(NC(=O)c3ccc4nc(CN5CC=C(c6cccc(OCc7ccc(C#N)cc7F)n6)CC5)n(CC5CCO5)c4c3)cc12 (stereo not drawn)
0.65
